# Tested on: DLK;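 further: KINOMEscan kinase panel screen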
# Construct: gene MAP3K12
# studyConditions: concentration: 1 μM, replicates: in singlicate; n = 1
Reported %Inh values follow for various compounds
# output: bare number, implied unit %

Below, 8 compounds whose answers are already recorded.
Cl.c1ccc(Cn2ncc3cc(Nc4ncnc5ccccc45)ccc32)cc1 = 12
FC(F)(F)c1ccc(-c2cc(-c3c[nH]nc3-c3ccccn3)ccn2)cc1 = 41
O=C(Nc1ccccc1)Nc1ccc(Oc2ccc3nccn3n2)cc1 = 18
CCn1c(-c2ccncc2)nc2cnccc21 = 0
FC(F)(F)c1cc(Nc2nccc(-c3c(-c4ccc(Cl)cc4)nn4ncccc34)n2)ccc1Cl = 0
Clc1ccc(-c2cc(-c3c[nH]nc3-c3ccccn3)ccn2)cc1 = 92.9
NC(=O)c1sc(-n2cnc3ccccc32)cc1OCc1ccccc1F = 38
Nc1nc(-c2ccc3c(N)n[nH]c3c2)cc(N2CCC[C@@H](C(=O)Nc3ccccc3)C2)n1.O=C(O)C(F)(F)F.O=C(O)C(F)(F)F = 0

Next, consider the following compound.
Data request: Fill in: %Inh of `OCCOCCn1ccc2ncnc(Nc3ccc(Oc4cccc(Cl)c4)c(Cl)c3)c21` is ___
Data returned: 0

Data provenance is paper PMC5540273.
